Assay: Solubility assessment (solvent added in 10 volume aliquots)
Assay type: physicochemical
Conditions: acetone, organic solvent or mixture, thermodynamic from solid, Acetone, 20 vols; read-out: Solubility assessment observation
MEASURE: solubility

Name the recorded solubility for `C1=C2COC/C=C/COCc3cc(ccc3OCCN3CCCC3)Nc3nccc(n3)C(=C1)O2` . < 50 mg/mL

###

Assay: Solubility assessment (solvent added in 10 volume aliquots)
Format: physicochemical
Details: THF, organic solvent or mixture, thermodynamic from solid, THF, 100 vols; read-out: Solubility assessment observation
MEASURE: solubility

Name the recorded solubility for `C1=C2COC/C=C/COCc3cc(ccc3OCCN3CCCC3)Nc3nccc(n3)C(=C1)O2` . < 10000 µg/mL

Just for reference, patent US9062074B2 is where these values come from.
